// reported pKd per item
- TARGET_SYSTEM: T1, human interleukin-23 receptor (IL23R) (human, UniProt Q5VWK5 24-355, limits assumed)
- T1 construct: also called human IL23R
- T1 sequence (looked up): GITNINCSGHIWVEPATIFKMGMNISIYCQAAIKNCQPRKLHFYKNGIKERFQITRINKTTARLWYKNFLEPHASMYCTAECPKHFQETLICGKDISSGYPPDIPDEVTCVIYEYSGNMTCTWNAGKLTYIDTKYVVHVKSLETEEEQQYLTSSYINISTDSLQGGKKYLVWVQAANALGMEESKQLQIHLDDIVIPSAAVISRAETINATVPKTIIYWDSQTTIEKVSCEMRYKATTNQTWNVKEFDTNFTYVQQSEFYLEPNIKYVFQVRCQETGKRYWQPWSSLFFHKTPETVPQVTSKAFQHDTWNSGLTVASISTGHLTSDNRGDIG
- EXPERIMENT_SUMMARY: SPR, scFv
Bear in mind: pKd is minus log10 of a mol/L concentration; give just that figure.

# annotated cases, reported pKd shown
BINDER	pKd
Vκ1/VH5 consensus (uncapped), human IL23R specific scFv (scFv, scFv VL-linker-VH, made in E. coli; Vκ framework IV (uncapped, full consensus); also called Vκ1VH5 uncapped) scFv: DIQMTQSPSSLSASVGDRVTITCQASENIYSFLAWYQQKPGKAPKLLIYSASKLAAGVPSRFSGSGSGTDFTLTISSLQPEDFATYYCQQTNRYSNPDIYNVFGQGTKVEIKRGGGGSGGGGSGGGGSGGGGSEVQLVQSGAEVKKPGESLKISCKGSGIDFNSNYYMCWVRQMPGKGLEWMGCIYVGSHVNTYYANWAKGQVTISADKSISTAYLQWSSLKASDTAMYYCATSGSSVLYFKFWGQGTLVTVSS	9.62
Vκ1/VH2 consensus λ-capped, human IL23R specific scFv (scFv, scFv VL-linker-VH, made in E. coli; also called Vκ1VH2 capped) scFv: DIQMTQSPSSLSASVGDRVTITCQASENIYSFLAWYQQKPGKAPKLLIYSASKLAAGVPSRFSGSGSGTDFTLTISSLQPEDFATYYCQQTNRYSNPDIYNVFGGGTKLTVLGGGGGSGGGGSGGGGSGGGGSQVQLKESGPALVKPTQTLTLTCTFSGIDFNSNYYMCWIRQPPGKALEWLACIYVGSHVNTYYANWAKGRLTISKDTSKNQVVLTMTNMDPVDTATYYCATSGSSVLYFKFWGQGTLVTVSS	10.14

Now examine the next entry.
Memo: Vκ1/VH2 consensus (uncapped), human IL23R specific scFv (scFv, scFv VL-linker-VH, made in E. coli; Vκ framework IV (uncapped, full consensus); also called Vκ1VH2 uncapped) scFv: DIQMTQSPSSLSASVGDRVTITCQASENIYSFLAWYQQKPGKAPKLLIYSASKLAAGVPSRFSGSGSGTDFTLTISSLQPEDFATYYCQQTNRYSNPDIYNVFGQGTKVEIKRGGGGSGGGGSGGGGSGGGGSQVQLKESGPALVKPTQTLTLTCTFSGIDFNSNYYMCWIRQPPGKALEWLACIYVGSHVNTYYANWAKGRLTISKDTSKNQVVLTMTNMDPVDTATYYCATSGSSVLYFKFWGQGTLVTVSS , reported pKd: 9.68
